# TARGET_ENTITY: NLRP3 inflammasome (Mus musculus)
# Construct: endogenous in cells; host or cells: primary mouse bone marrow-derived dendritic cells (BMDCs), LPS-primed
# Sequence (Q8R4B8 whole entry): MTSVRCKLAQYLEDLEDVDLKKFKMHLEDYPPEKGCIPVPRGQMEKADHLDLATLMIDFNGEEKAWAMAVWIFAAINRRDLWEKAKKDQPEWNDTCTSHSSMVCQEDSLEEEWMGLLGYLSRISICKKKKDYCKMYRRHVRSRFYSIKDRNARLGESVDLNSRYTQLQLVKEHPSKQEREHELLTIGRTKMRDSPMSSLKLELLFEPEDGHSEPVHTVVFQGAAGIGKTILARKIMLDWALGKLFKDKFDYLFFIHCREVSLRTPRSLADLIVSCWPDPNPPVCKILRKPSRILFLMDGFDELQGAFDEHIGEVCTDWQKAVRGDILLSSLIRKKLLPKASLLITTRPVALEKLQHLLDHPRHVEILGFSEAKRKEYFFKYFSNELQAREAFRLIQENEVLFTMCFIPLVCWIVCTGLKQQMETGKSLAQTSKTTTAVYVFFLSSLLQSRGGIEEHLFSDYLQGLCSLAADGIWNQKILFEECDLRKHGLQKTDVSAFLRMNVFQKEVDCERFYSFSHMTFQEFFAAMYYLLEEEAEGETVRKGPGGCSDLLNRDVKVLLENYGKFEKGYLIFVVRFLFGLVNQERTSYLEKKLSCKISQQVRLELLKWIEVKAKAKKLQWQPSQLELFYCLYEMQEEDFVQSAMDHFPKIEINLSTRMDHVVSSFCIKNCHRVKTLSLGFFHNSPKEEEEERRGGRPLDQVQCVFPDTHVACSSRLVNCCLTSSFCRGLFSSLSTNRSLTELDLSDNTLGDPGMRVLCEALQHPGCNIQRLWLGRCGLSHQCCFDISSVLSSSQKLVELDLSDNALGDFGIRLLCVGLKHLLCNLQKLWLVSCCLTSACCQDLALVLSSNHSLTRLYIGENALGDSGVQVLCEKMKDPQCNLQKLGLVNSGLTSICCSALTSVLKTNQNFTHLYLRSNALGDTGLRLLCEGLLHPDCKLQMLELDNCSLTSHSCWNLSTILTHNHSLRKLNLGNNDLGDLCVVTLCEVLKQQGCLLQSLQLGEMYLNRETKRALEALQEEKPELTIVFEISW
# TEST_NAME: IL-1β release from LPS-primed BMDCs (ELISA) as readout of NLRP3 inflammasome activation
# Assay type: cell-based
# CONDITIONS: IL-1β; 75 μM; positive control EN22 18.75 μM
# Protocol: This was tested in cell culture in several different in vitro assays classically used to investigate inflammasome activation. […] Lytic cell death was determined via LDH release. […] For classification of the activity of a given molecule, release of IL-1β was quantified as % of IL-1% of a respective control activator used for the experiment (highlighted in tables with bold letters). […]
READOUT_KIND: Average (% positive control)

See these solved cases before continuing.
COMPOUND | TARGET_ENTITY | Average (% positive control)
O=C(Nc1cccc(Cl)c1)Nc1ccc([N+](=O)[O-])cc1Cl | NLRP3 inflammasome (Mus musculus) | 6.592
COc1ccc(NC(=O)Nc2ccc(-c3noc(CC4CCCN(Cc5cccc(F)c5C)C4)n3)cc2)cc1 (stereo not shown) | NLRP3 inflammasome (Mus musculus) | 19.256

a: Cc1c(F)cccc1CN1CCCC(Cc2nc(-c3ccc(NC(=O)Nc4ccccc4)cc3)no2)C1 (stereo not shown)
b: O=C(Nc1ccccc1Cl)Nc1ccc([N+](=O)[O-])cc1Cl
Please let me know which one, a or b , has a lower measured Average (% positive control) value. Give the label under which the chosen entry appears.
b
